Value source: patent US20070129568A1

# measurement-notes: Room temperature evaporation rate: rate of weight loss in a stream of 25° C. nitrogen relative to n-butyl acetate
# Assay type: physicochemical
# assay-context: rate of weight loss in a stream of 25° C. nitrogen, relative to n-butyl acetate under the same conditions
# Protocol: Most compounds released by manufacturing processes affect the environment in some manner. […] The room temperature evaporation rates of some of the ILs described in the present invention were compared to several well known compounds by measuring the rate of weight loss in a stream of 25° C. nitrogen relative to the rate of weight loss of n-butyl acetate under the same conditions.
experimental-endpoint: Evaporation Rate (n-Butyl Acetate = 1)

molecule: CC(C)O
experimental-endpoint: Evaporation Rate (n-Butyl Acetate = 1)
recorded-value: 2.5
//
molecule: CCCCC(CC)C(=O)O (stereo not drawn)
experimental-endpoint: Evaporation Rate (n-Butyl Acetate = 1)
recorded-value: 0.003
//
molecule: CCCCO
experimental-endpoint: Evaporation Rate (n-Butyl Acetate = 1)
recorded-value: 0.43
//
molecule: Cc1ccccc1
experimental-endpoint: Evaporation Rate (n-Butyl Acetate = 1)
recorded-value: 1.9
//
molecule: CCC(C)=O
experimental-endpoint: Evaporation Rate (n-Butyl Acetate = 1)
recorded-value: 5.7
//
molecule: CC(C)=O
experimental-endpoint: Evaporation Rate (n-Butyl Acetate = 1)
recorded-value: 14.4
